# MEASUREMENT_DESCRIPTION: Pharmacokinetics assays (plasma and brain)
# Assay type: in vivo
# Set-up: concentration or dose not given beside the values
# REPORTED_CONDITIONS: plasma
Each item that follows carries a reported AUC(0-inf).
Enter your answer as a number in ng·h/mL; do not include the unit.

Record excerpt, results attached:
- N#Cc1ccc(-c2cnc3ccc(-c4ccc(C(=O)N5CCNCC5)cc4)nn23)cc1: 359
- CN1CCN(C(=O)c2ccc(-c3ccc4ncc(-c5ccc(C#N)cc5)n4c3)cc2)CC1=O: 4190
- CN(C)C1CCN(C(=O)c2ccc(-c3cn4c(-c5ccc(C#N)cc5)cnc4cn3)cc2)CC1: 536
- N#Cc1ccc(-c2cnc3ccc(-c4ccc(C(=O)N5CCOCC5)cc4)nn23)cc1: 76500
- N#Cc1ccc(-c2cnn3ccc(-c4ccc(C(=O)N5CCOCC5)cc4)nc23)cc1: 55100
- N#Cc1ccc(-c2cnc3cnc(-c4ccc(C(=O)N5CCOCC5)cc4)cn23)cc1: 12800
- CN1CCN(C(=O)c2ccc(-c3cn4c(-c5ccc(C#N)cc5)cnc4cn3)cc2)CC1: 7440
- N#Cc1ccc(-c2cnc3ccc(-c4ccc(C(=O)N5CCOCC5)cc4)cn23)cc1: 26000
- CN1CCN(C2CCN(C(=O)c3ccc(-c4ccc5ncc(-c6ccc(C#N)cc6)n5c4)cc3)CC2)CC1: 632

Now for another entry.
Need AUC(0-inf) of `CC(=O)Nc1cc(-c2ccc3ncc(-c4ccc(C#N)cc4)n3c2)ccc1C(=O)N1CCOCC1` , thanks.
5720

###

# MEASUREMENT_DESCRIPTION: Pharmacokinetics assays (plasma and brain)
# Assay type: in vivo
# Set-up: concentration or dose not given beside the values
# REPORTED_CONDITIONS: plasma; read-out: Plasma AUC last
ASSAY_READOUT: AUC(0-t) (ng·h/mL)
Enter your answer as a number in ng·h/mL; do not include the unit.

Record excerpt, results attached:
• CN1CCN(C2CCN(C(=O)c3ccc(-c4ccc5ncc(-c6ccc(C#N)cc6)n5c4)cc3)CC2)CC1 [Entry 4] = 614
• CC(=O)Nc1cc(-c2ccc3ncc(-c4ccc(C#N)cc4)n3c2)ccc1C(=O)N1CCOCC1 [Entry 9] = 5720
• N#Cc1ccc(-c2cnc3ccc(-c4ccc(C(=O)N5CCNCC5)cc4)nn23)cc1 [Entry 6] = 350

Need AUC(0-t) of CN(C)C1CCN(C(=O)c2ccc(-c3cn4c(-c5ccc(C#N)cc5)cnc4cn3)cc2)CC1 [Entry 2] , thanks.
527

###

# MEASUREMENT_DESCRIPTION: Pharmacokinetics assays (plasma and brain)
# Type: in vivo
# REPORTED_CONDITIONS: in vivo
Each item that follows carries a reported Plasma/Brain Ratio.

Record excerpt, results attached:
* CN(C)C1CCN(C(=O)c2ccc(-c3cn4c(-c5ccc(C#N)cc5)cnc4cn3)cc2)CC1 [Entry 2] | 0.13
* N#Cc1ccc(-c2cnc3ccc(-c4ccc(C(=O)N5CCNCC5)cc4)nn23)cc1 [Entry 6] | 0.05
* CN1CCN(C2CCN(C(=O)c3ccc(-c4ccc5ncc(-c6ccc(C#N)cc6)n5c4)cc3)CC2)CC1 [Entry 4] | 0.3
* CN1CCN(C(=O)c2ccc(-c3ccc4ncc(-c5ccc(C#N)cc5)n4c3)cc2)CC1=O [Entry 3] | 0.01

Need Plasma/Brain Ratio of N#Cc1ccc(-c2cnn3ccc(-c4ccc(C(=O)N5CCOCC5)cc4)nc23)cc1 [Entry 8] , thanks.
0.53

Need Plasma/Brain Ratio of CC(=O)Nc1cc(-c2ccc3ncc(-c4ccc(C#N)cc4)n3c2)ccc1C(=O)N1CCOCC1 [Entry 9] , thanks.
0.03

Need Plasma/Brain Ratio of N#Cc1ccc(-c2cnc3cnc(-c4ccc(C(=O)N5CCOCC5)cc4)cn23)cc1 [Entry 10] , thanks.
0.06
